Reference source: patent US20110110916A1

- Tested on: Lmna^H222P/H222P mice
- Format: in vivo, mouse
- Run Conditions: Lmna^H222P/H222P mice at 16 weeks of age; i.p. 5 days a week from 8 to 16 weeks (PD98059, SP600125 3 mg/kg/day); means ± standard deviations
EF reference

1) N#CC(=C(N)Sc1ccc(N)cc1)c1ccccc1C(F)(F)F [MEK1/2] ... 64.43 ± 0.77%
2) N#CC(=C(N)Sc1ccccc1N)C(C#N)=C(N)Sc1ccccc1N [U0126] ... 62.83 ± 4.09%
3) COc1cccc(-c2cc(=O)c3ccccc3o2)c1N [PD98059] ... 73.52 ± 4.68 %

// switching to the query molecule
Problem: State the recorded EF for this entry: O=C1c2ccccc2-c2n[nH]c3cccc1c23 [SP600125, anthra[1,9-cd]pyrazol-6(2H)-one]
Result: 69.24 ± 9.59 %

----------
- System: Lmna^H222P/H222P mice
- Assay type: in vivo, mouse
- Run Conditions: Lmna^H222P/H222P mice at 16 weeks of age; i.p. 5 days a week from 8 to 16 weeks (PD98059, SP600125 3 mg/kg/day); means ± standard deviations
Property Name: FS (%)
Dear colleague, please return just the value in %, with no unit written.

Would you please look over these solved cases?
1) N#CC(=C(N)Sc1ccccc1N)C(C#N)=C(N)Sc1ccccc1N [U0126] ... 33.79
2) N#CC(=C(N)Sc1ccc(N)cc1)c1ccccc1C(F)(F)F [MEK1/2] ... 34.50
3) COc1cccc(-c2cc(=O)c3ccccc3o2)c1N [PD98059] ... 41.55

# ---- query compound ----
Problem: Look up FS with Lmna^H222P/H222P mice for this compound: O=C1c2ccccc2-c2n[nH]c3cccc1c23 [SP600125, anthra[1,9-cd]pyrazol-6(2H)-one]
Result: 38.70
